B1: CPEB3 Ribozyme (parent)
chain: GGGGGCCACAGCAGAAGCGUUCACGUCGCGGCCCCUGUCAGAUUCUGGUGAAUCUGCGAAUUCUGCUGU

# Variants of: B1
# assayText: self-cleavage, relative activity (ratio to wild type); higher = more cleavage; co-transcriptional
Classify by measured self-cleavage: true if it is equal to or exceeds 0.7, false if it is smaller.

hey, is self-cleavage for this one >= 0.7? GGGGGUCACAGCAGCAGCGUUCACGUCGCGGCCCCUGUCAGAUUCUGGUGAAUCUGCGAAUUCUGCUGU [C6U A15C]
true

Determine whether measured self-cleavage meets or exceeds 0.7 for GGGGGCCACAGCAGAAGCGUUCACGUCGCGGCCCCUGUCAGAUUCGGGCGAAUCUGCGAAUUCUGCUGU [U46G U49C]
true

Decide: is the reported value of self-cleavage for GGGGGCCACAGCAGAAGCGUUCACGUCGCGGCCCCUGUCAGAUUCUGGUGAAUCUGCGUAUUCUUCUGU [A59U G65U] equal to or greater than 0.7?
false

Kindly determine if self-cleavage recorded for GGGGGCCACAGCAGAAGCGUUCAUGUCGUGGCCCCUGUCAGAUUCUGGUGAAUCUGCGAAUUCUGCUGU [C24U C29U] is above or exactly 0.7.
false

Does self-cleavage meet or surpass 0.7 for GGGGGCCACAGUAGAAGCGUUCACGUCGCGGCCCCUGUCAGAUUCUGGUGAAUCUGCAAAUUCUGCUGU [C12U G58A] ?
true

Can GGGGGCCACAGCAGAAGCGUUCACGUCGCGGCCCCUGUAUGAUUCUGGUGAAUCUGCGAAUUCUGCUGU [C39A A40U] be said to have self-cleavage at or above 0.7?
false

Please check the record GGGGGCCACAGCAGAAGCGUUCACGUCGCUGCCCCUGUCAGAUUCUGGUGAAUCUGCGGAUUCUGCUGU [G30U A59G] and state if its self-cleavage is at or above 0.7.
false

Is the recorded value of self-cleavage equal to or greater than 0.7 for this variant? GAGGGCCACAGCAGAAGCGUUCACGUCGCGGCCCCUGUCAGAUUCUGGUUAAUCUGCGAAUUCUGCUGU [G2A G50U]
false

State whether the measured self-cleavage reaches 0.7, counting equality as reaching it, for GGGGGCCACAGCAGAAGCGUUCACGUCGCGCCCCCUGUCAGAUUCUGGUGAAUCUGCGAAUUCUGCAGU [G31C U67A]
false

Threshold query (self-cleavage >= 0.7) on GGGGGCCACAGCAGAAGCGUUCGCGUCGCGGCCCCUGUCAGAUUCUGGAGAAUCUGCGAAUUCUGCUGU [A23G U49A]
true

For this variant, is measured self-cleavage 0.7 or higher? GGGGGCCACAGCAGAAGCGCUCACGUCGCGGCCCCUGUCAGAUUCUGGUGAAUCUGCUAAUUCUGCUGU [U20C G58U]
false

Hi, just wondering whether GGGUGCCACAGCUGAAGCGUUCACGUCGCGGCCCCUGUCAGAUUCUGGUGAAUCUGCGAAUUCUGCUGU [G4U A13U] shows self-cleavage of 0.7 or higher.
false

State whether the measured self-cleavage reaches 0.7, counting equality as reaching it, for GGGGGCCACAGCAGAAGCGUUCACGUCGCGGCCCCUGUCAGAUUCGGGUGAAUCUGCGGAUUCUGCUGU [U46G A59G]
true

Hi team, for GGGAGCUACAGCAGAAGCGUUCACGUCGCGGCCCCUGUCAGAUUCUGGUGAAUCUGCGAAUUCUGCUGU [G4A C7U] , is the recorded self-cleavage at or above 0.7?
false

Record GGGGGCCACAGCAGAAGCGUUCACGUCGCGGCCCCUGUCAGAUUCUGGUGAAUCGGCGCAUUCUGCUGU [U55G A59C] ; criterion: self-cleavage no lower than 0.7. Met?
false

API: above_or_equal(metric=self-cleavage, cutoff=0.7) for item GGGGGCCACAACAGAAGCGUUCACGUCGCGGCCCCUGUCAGAUUCUGGUGAAUGUGCGAAUUCUGCUGU [G11A C54G]
false

Given the entry GGGGGCCACACCAGAAGCGUUCACGUCGCGGCCCCGGUCAGAUUCUGGUGAAUCUGCGAAUUCUGCUGU [G11C U36G] , answer whether its self-cleavage meets or surpasses 0.7.
false

API: above_or_equal(metric=self-cleavage, cutoff=0.7) for item GGGGGCCACAGCAGCAGCGUUCACGUCGCGGCCCCUGUCAGAUUCCGGUGAAUCUGCGAAUUCUGCUGU [A15C U46C]
true

Determine whether measured self-cleavage meets or exceeds 0.7 for GGGGGCCACAGCAGAAGCGUUCACGUCGCGGCCCCUGUCAGAUUCUGGUGAAUCUGCGAAUUCAGCAGU [U64A U67A]
true

Could you please find out whether GGGGGCCACAGCAGAAGCGUUCACGUCGCGGCCUCUGUCAGAUUCUGGUGAAUCUGCGAAUUCUGCGGU [C34U U67G] has self-cleavage that meets 0.7 or exceeds it?
true

Check the entry GGGGGCCACAGCAGAAGCGUUCACGUCGCAGCCUCUGUCAGAUUCUGGUGAAUCUGCGAAUUCUGCUGU [G30A C34U] : does self-cleavage equal or exceed 0.7?
true
